Property label: logP

Look over these answered cases.
{"Test smiles": "CNc1ccc(-c2nc3ccc(OC)cc3s2)cc1I", "Experimental result": 3.8}
{"Test smiles": "Oc1ccc2nc(-c3ccc(O)c(I)c3)sc2c1", "Experimental result": 1.09}
{"Test smiles": "Nc1ccc(-c2nc3ccc(O)cc3s2)cc1I", "Experimental result": 1.65}
{"Test smiles": "Oc1ccc(-c2nc3ccc(O)c(I)c3s2)cc1", "Experimental result": 1.01}
{"Test smiles": "Nc1ccc(-c2nc3ccc(Br)cc3s2)cc1", "Experimental result": 2.87}

[A] Nc1ccc(-c2nc3ccccc3s2)cc1I
[B] Oc1ccc(-c2nc3ccccc3s2)cc1
Hey, between A and B which has a smaller measured logP? Identify your pick by its label.
B
(B: 1.86, A: 3.17)

[P] COCOc1ccc2nc(-c3ccc(N)cc3)sc2c1
[Q] CNc1ccc(-c2nc3ccc(Br)cc3s2)cc1
Hi, I'm comparing two records. Which one has the lower logP, P or Q ? Reply with the label of the item you choose.
P
(P: 1.86, Q: 3.64)

[a] CNc1ccc(-c2nc3ccc([N+](=O)[O-])cc3s2)cc1I
[b] COc1ccc2nc(-c3ccc(O)cc3)sc2c1
[c] CNc1ccc(-c2nc3ccc(OC)cc3s2)cc1
I would appreciate it if you could sort these 3 molecules by logP, starting from the smallest number. Reply format: the labels, ordered as requested.
b, c, a
(b: 1.8, c: 2.58, a: 4.08)
